The values you see were collected from ChEMBL document CHEMBL3872252.

Give selectivity ratio for every item shown.
testProtocol: Selectivity index, ratio of GI50 for human HCT116 cells to MIC90 for Mycobacterium tuberculosis H37Ra ATCC 25177 dormant stage
Assay type: toxicity, cell-based, HCT-116
conditionSummary: read-out: Selectivity Index
One number for each entry.

Completed entries (count: 2):
| smiles | selectivity ratio |
| --- | --- |
| C/C(=N\Nc1nc(-c2ccc(C)cc2)cs1)c1sc(C)nc1C | 2 |
| C/C(=N\Nc1nc(-c2ccc(F)cc2)cs1)c1sc(C)nc1C | 2 |

Shift focus to the following entry.
Field request: selectivity ratio | item: C/C(=N\Nc1nc(-c2ccc(Br)cc2)cs1)c1sc(C)nc1C
2

* * *

testProtocol: Antitubercular activity against Mycobacterium bovis BCG ATCC 35743 dormant stage measured on day 12 by nitrate reductase based two-fold dilution assay
Format: functional, Mycobacterium bovis BCG str. ATCC 35743
conditionSummary: Mycobacterium tuberculosis variant bovis BCG, ATCC 35743, 288 h
observable: MIC90

| smiles | MIC90 |
| --- | --- |
| C/C(=N\Nc1nc(-c2ccccc2)cs1)c1sc(C)nc1C | 17.2 µg/mL |
| C/C(=N\Nc1nc(-c2ccc(C)cc2)cs1)c1sc(C)nc1C | 83.2 µg/mL |
| C/C(=N\Nc1nc(-c2ccc(Cl)cc2)cs1)c1sc(-c2ccccc2)nc1C | 83.7 µg/mL |
| C/C(=N\Nc1nc(-c2ccc(F)cc2)cs1)c1sc(C)nc1C | 10.4 µg/mL |
| C/C(=N\Nc1nc(-c2ccccc2)cs1)c1sc(-c2ccccc2)nc1C | 18.7 µg/mL |

// each listed compound needs a value for MIC90
1. C/C(=N\NC(N)=S)c1sc(-c2ccccc2)nc1C
2. COc1ccc(-c2csc(N/N=C(\C)c3sc(C)nc3C)n2)cc1

1: 3.46 µg/mL; 2: 24 µg/mL

Sample C/C(=N\Nc1nc(-c2ccc(F)cc2)cs1)c1sc(-c2ccccc2)nc1C — what was its MIC90?
> 100 µg/mL

* * *

testProtocol: Selectivity index, ratio of GI50 for human HCT116 cells to MIC90 for Mycobacterium bovis BCG ATCC 35743 dormant stage
Format: toxicity, cell-based, HCT-116
conditionSummary: read-out: Selectivity Index
observable: selectivity ratio

| smiles | selectivity ratio |
| --- | --- |
| C/C(=N\Nc1nc(-c2ccc(Cl)cc2)cs1)c1sc(C)nc1C | 6 |
| C/C(=N\Nc1nc(-c2ccccc2)cs1)c1sc(-c2ccccc2)nc1C | 5 |
| C/C(=N\NC(N)=S)c1sc(-c2ccccc2)nc1C | 14 |

// selectivity ratio lookup, key: C/C(=N\Nc1nc(-c2ccc(Cl)cc2)cs1)c1sc(-c2ccccc2)nc1C
1
